- measuredTarget: human kinase Mps-1 (Homo sapiens)
- Construct: N-terminally GST-tagged human full length recombinant Mps-1 kinase; GST (N)
- Sequence (P33981 1-857): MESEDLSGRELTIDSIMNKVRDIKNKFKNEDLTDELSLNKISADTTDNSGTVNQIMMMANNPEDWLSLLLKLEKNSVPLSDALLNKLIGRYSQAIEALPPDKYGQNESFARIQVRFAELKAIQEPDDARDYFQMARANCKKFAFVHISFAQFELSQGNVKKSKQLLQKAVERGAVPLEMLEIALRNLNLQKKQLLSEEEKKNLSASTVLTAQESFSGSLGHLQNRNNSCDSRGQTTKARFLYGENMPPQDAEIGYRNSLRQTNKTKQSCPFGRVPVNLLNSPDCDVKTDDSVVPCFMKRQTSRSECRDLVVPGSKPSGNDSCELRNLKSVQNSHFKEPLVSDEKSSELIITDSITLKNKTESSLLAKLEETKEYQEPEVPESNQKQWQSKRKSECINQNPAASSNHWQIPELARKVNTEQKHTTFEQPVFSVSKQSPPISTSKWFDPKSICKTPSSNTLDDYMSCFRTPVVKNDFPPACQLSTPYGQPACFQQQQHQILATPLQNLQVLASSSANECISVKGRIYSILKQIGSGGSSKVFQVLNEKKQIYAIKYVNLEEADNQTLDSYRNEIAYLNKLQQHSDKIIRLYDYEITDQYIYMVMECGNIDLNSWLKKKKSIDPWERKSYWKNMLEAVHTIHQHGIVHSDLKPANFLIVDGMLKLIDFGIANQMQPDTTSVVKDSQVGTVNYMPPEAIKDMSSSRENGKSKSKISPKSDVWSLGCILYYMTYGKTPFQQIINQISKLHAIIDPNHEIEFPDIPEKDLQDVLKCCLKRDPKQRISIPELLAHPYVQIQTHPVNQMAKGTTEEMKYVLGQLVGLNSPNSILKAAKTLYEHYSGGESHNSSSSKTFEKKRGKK
- assayNotes: Mps-1 kinase assay (TR-FRET)
- experimentalSetup: Mps-1 TR-FRET kinase assay; avg; read-out: Mps1 avg (IC50 [mol/l])
readoutType: IC50

Here is how some compounds turned out for IC50.
INSERT INTO measurements (compound, measuredtarget, valueobserved) VALUES
  ('CC(=O)N1CCC(Oc2ccc(NC(=O)c3c(C)nsc3Nc3cnc(C(F)(F)F)cn3)cn2)CC1', 'human kinase Mps-1 (Homo sapiens)', '≥ 20 µM'),
  ('Cc1nsc(Nc2cnc(C(F)(F)F)cn2)c1C(=O)Nc1ccc(N(C)C)c(OCCCN(C)CC(F)(F)F)c1', 'human kinase Mps-1 (Homo sapiens)', '> 20 µM'),
  ('Cc1nsc(Nc2ccc(C#N)cn2)c1C(=O)Nc1ccc(OC2CCCNC2)nc1 (stereo not shown)', 'human kinase Mps-1 (Homo sapiens)', '≥ 20 µM'),
  ('Cc1nsc(Nc2cnc3ccccc3n2)c1C(=O)Nc1cccc(C(=O)N[C@H](C(=O)O)[C@@H](C)OC(C)(C)C)c1', 'human kinase Mps-1 (Homo sapiens)', '16 µM'),
  ('CC(=O)N1CCC(Oc2ccc(NC(=O)c3c(C)nsc3Nc3cnc4ccccc4n3)cn2)CC1', 'human kinase Mps-1 (Homo sapiens)', '≥ 20 µM'),
  ('Cc1nsc(Nc2cncc(C(F)(F)F)n2)c1C(=O)Nc1ccc(OCC2CCN(C(=O)OC(C)(C)C)C2)nc1 (stereo not shown)', 'human kinase Mps-1 (Homo sapiens)', '≥ 20 µM');

Let us move to another entry and its IC50.
[Q] Look up IC50 with human kinase Mps-1 (Homo sapiens) for this compound: Cc1nsc(Nc2cncc(C(F)(F)F)n2)c1C(=O)Nc1ccc(C(=O)NC2CCN(CC(F)F)CC2)cc1
[A] > 20 µM
